Data provenance is patent US20260042834A1.

Target: T1, biotinylated CRH (human and mouse, not fully specified; biotinylated, position not stated)
T1 construct: also called Biotin-CRH; biotin-labeled CRH
T1 peptide: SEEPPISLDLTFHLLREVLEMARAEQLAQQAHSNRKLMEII
Test: competitive ELISA, coated 1st mAb; competitor hIgG1
Quantity: % Inhibition (%)
Give the quantity in %, number only.

Sample PR302069 (antibody, human IgG1, kappa, V domains shown, Humanized variant of PR301777) VH: EMQLVESGGGLVKPGGSLRLSCAASGFTFSNYWMNWVRQAPGKGLEWVAEIRLKSNNYATHYAESVKGRFTISRDDSKSTVYLQMNSLKTEDTAVYYCTVGTLVYWGQGTLVTVSS VL: DIQLTQSPSSLSASVGDRVTITCRASQSVSTSTYNYMHWFQQKPGKAPKLLIKFASNLESGVPSRFSGSGSGTDFTLTISSLQPEDTATYYCQHSWEIPYTFGQGTKLEIKR — what was its % Inhibition?
0
